- Tested on: redroot pigweed (Amaranthus retroflexus)
- Method Notes: Test G Pre-Emergence Protocol
- Assay type: in vivo
- Measurement Conditions: Amaranthus retroflexus, pre-emergence, 312 h, 62.5 g ai/ha, evaluated after 13 days, 100=total damage to plant, 0=no damage to plant, read-out: Pigweed, Redroot damage rating
Please go through the items and note down their pest or weed control at 62.5 g/ha.
Give bare numbers, in %.

Below, 8 molecules whose answers are already recorded.
Molecule	pest or weed control at 62.5 g/ha / %
CN1C[C@@H](c2ccc(C(F)(F)F)cc2)[C@H](C(=O)Nc2n[nH]cc2Cl)C1=O (racemic)	0
CN1C[C@H](c2ccc(Cl)cc2)[C@@H](C(=O)Nc2ccc(F)nc2F)C1=O	70
Cc1cc([C@H]2CN(C)C(=O)[C@@H]2C(=O)Nc2ccc(F)c(F)c2F)cnn1 (racemic)	0
CN1C[C@H](c2ccc(C(F)(F)F)cc2)[C@@H](C(=O)Nc2cccnc2[N+](=O)[O-])C1=O (racemic)	0
Cc1cc(C2CN(C)C(=O)C2C(=O)Nc2cccc(F)c2F)cc(C)c1Cl (centres unmarked)	0
COc1cc(C2CN(C)C(=O)C2C(=O)Nc2cccc(F)c2F)cc(Cl)c1OC (centres unmarked)	20
CN1C[C@@H](c2ccc(C(F)(F)F)cc2)[C@H](C(=O)Nc2cnc(Cl)cn2)C1=O (racemic)	20
Cc1c(F)cccc1NC(=O)[C@@H]1C(=O)N(C)C[C@H]1c1cccc(C(C)(C)O)c1 (racemic)	0

Could you tell me pest or weed control at 62.5 g/ha for each of these molecules? They are listed below.
1. Cc1c(F)cccc1NC(=O)[C@@H]1C(=O)N(C)C[C@H]1c1cc(Cl)c(F)c(Cl)c1 (racemic)
2. Cc1cc([C@H]2CN(C)C(=O)[C@@H]2C(=O)Nc2cccc(F)c2F)cnn1 (racemic)
3. CN1C[C@H](c2ccc(C(F)(F)F)cc2)[C@@H](C(=O)Nc2ccc[n+]([O-])c2F)C1=O (racemic)
4. CN1C[C@H](c2cccc(C(F)F)c2)[C@@H](C(=O)Nc2cnccc2C(F)(F)F)C1=O (racemic)
5. C=Cc1cc(Oc2ccccc2)cc([C@@H]2CN(C)C(=O)[C@H]2C(=O)Nc2cccc(F)c2F)c1 (racemic)
6. CN1CC(C2CCN=C(C(C)(C)C)N2)C(C(=O)Nc2ccc(F)c(F)c2F)C1=O (centres unmarked)
7. CN1C[C@H](c2ccc(F)c(F)c2)[C@@H](C(=O)Nc2cnccc2C(F)(F)F)C1=O (racemic)

1. 0
2. 0
3. 0
4. 10
5. 0
6. 0
7. 0

Batch: pest or weed control at 62.5 g/ha for all items listed.
1. COc1c(F)cc(C2CN(C)C(=O)C2C(=O)Nc2cccc(F)c2F)cc1Cl (centres unmarked)
2. CN1C[C@H](c2ccc(C(F)(F)F)cc2)[C@@H](C(=O)Nc2cccc3c2S(=O)(=O)CC3)C1=O (racemic)

20
0

###

- Test system: pigweed (Amaranthus retroflexus)
- Method Notes: Test A postemergence
- Format: in vivo
- Measurement Conditions: Amaranthus retroflexus, post-emergence, 240 h, 125 g ai/ha, postemergence; visual injury on 0 to 100 scale (0 no effect, 100 complete control), approx. 10 d; read-out: Pigweed plant response rating
Metric: pest or weed control at 125 g/ha (%)
Numbers only, in %.

Example entries begin here.
Molecule	Metric	Test Value
Cc1ccc([C@H]2CNC(=O)[C@@H]2C(=O)Nc2ccccc2F)cc1C	pest or weed control at 125 g/ha	0
CN1C[C@H](c2cc(C(F)F)cs2)[C@@H](C(=O)Nc2ccccc2S(C)(=O)=O)C1=O	pest or weed control at 125 g/ha	0
CN1CC(c2cccc(/C=C/Cl)c2)C(C(=O)Nc2ccccc2F)C1=O (centres unmarked)	pest or weed control at 125 g/ha	0
Cc1cc([C@H]2CN(C)C(=O)[C@@H]2C(=O)Nc2cccc(F)c2F)ccc1Br	pest or weed control at 125 g/ha	20

// next entry
Summary for this molecule, Cc1cc([C@H]2CN(C)C(=O)[C@@H]2C(=O)Nc2ccccc2F)ccc1Br : pest or weed control at 125 g/ha is 0

###

Give measured pest or weed control at 125 g/ha for each item. Keep answers brief.
- Test system: barnyardgrass (Echinochloa crus-galli)
- Method Notes: Test A preemergence
- Assay type: in vivo
- Measurement Conditions: Echinochloa crus-galli, pre-emergence, 240 h, Preemergence, 125 g ai/ha; 0 to 100 scale (0 no effect, 100 complete control); read-out: Plant response rating, Barnyardgrass
Answers are plain numbers, in %.

Solved cases (7 shown):
Compound	Measurement Units	pest or weed control at 125 g/ha
CN1C[C@H](c2cccc(C(C)(F)F)c2)[C@@H](C(=O)Nc2ccccc2S(C)(=O)=O)C1=O [Compound 1318]	%	90
CS(=O)(=O)c1ccccc1NC(=O)[C@H]1C(=O)NC[C@@H]1c1ccc2c(c1)CCO2 [Compound 1320]	%	0
CN1C[C@H](c2ccc(Br)cc2)[C@@H](C(=O)Nc2ccc(F)c(F)c2F)C1=O [Compound 1393]	%	90
CN1C[C@H](c2ccc3c(c2)CCO3)[C@@H](C(=O)Nc2ccc(F)c(F)c2F)C1=O [Compound 1323]	%	90
CN1C[C@H](c2cccc(C(F)(F)F)c2)[C@@H](C(=O)Nc2ccc(F)nc2F)C1=O [Compound 1348]	%	100
Cc1ccc([C@H]2CN(C)C(=O)[C@@H]2C(=O)Nc2ccc(F)c(F)c2F)cc1 [Compound 1378]	%	90
Cc1cccc([C@H]2CN(C)C(=O)[C@@H]2C(=O)Nc2cnccc2C)c1 [Compound 1344]	%	0

Continue with the compound presented below.
# pest or weed control at 125 g/ha (compound: CN1C[C@H](c2ccc3c(c2)OC(F)(F)O3)[C@@H](C(=O)Nc2cnccc2C(F)(F)F)C1=O [Compound 1354] ) is 80

###

Can you tell me plant injury at 15.625 g/ha for the items I'm about to list?
- Tested on: corn (Zea mays)
- Method Notes: Test G Post-Emergence Protocol
- Type: in vivo
- Measurement Conditions: Zea mays, post-emergence, 312 h, 15.625 g ai/ha, evaluated after 13 days (100=total damage to plant; 0=no damage to plant), read-out: Corn damage rating
- Excerpt: Seeds of corn (Zea mays), giant foxtail (Setaria faberi), barnyardgrass (Echinochloa crus-galli), ivy-leaved morning glory (Ipomoea hederacea), redroot pigweed (Amaranthus retroflexus) and velvetleaf (Abutilon theophrasti) were sown in standard soil in pots. […]
Give bare numbers, in %.

Worked set:
Molecule	Test Value
CN1C[C@@H](c2ccc(C(F)(F)F)cc2)[C@@](O)(C(=O)Nc2cccc(F)c2F)C1=O (racemic) [Compound 1403]	10
CN1C[C@H](c2cc(Cl)cc(C(F)(F)F)c2)[C@@H](C(=O)Nc2ccccc2S(C)(=O)=O)C1=O (racemic) [Compound 1797]	10
CN1C[C@H](c2cccc(Cl)c2)[C@@H](C(=O)Nc2cnccc2C(F)(F)F)C1=O (racemic) [Compound 1772]	0
CN1CC(c2cc(F)cc(OCC(F)(F)F)c2)C(C(=O)Nc2cccc(F)c2F)C1=O (stereo not shown) [Compound 1698]	20
COc1nccc(NC(=O)[C@@H]2C(=O)N(C)C[C@H]2c2ccc(C(F)(F)F)cc2)n1 (racemic) [Compound 1640]	0

Please go through the list and note plant injury at 15.625 g/ha for each molecule.
1. Cc1ccc([C@H]2CN(C)C(=O)[C@@H]2C(=O)Nc2ccccc2F)cc1Cl (racemic) [Compound 1420]
2. CN1C[C@@H](c2ccc(C(F)(F)F)cc2)[C@H](C(=O)Nc2cc(C(F)(F)F)[nH]n2)C1=O (racemic) [Compound 1530]

1: 10; 2: 0

###

- Test system: ducksalad (Heteranthera limosa)
- Method Notes: Test B flooded paddy test
- Assay type: in vivo
- Measurement Conditions: Heteranthera limosa, 360 h, Flood, 250 g ai/ha; visually evaluated after 13 to 15 d; read-out: Plant response rating, Ducksalad (0 to 100 scale where 0 is no effect and 100 is complete control)
Metric: pest or weed control at 250 g/ha
Could you give the number and then its unit, please?

Worked cases, pest or weed control at 250 g/ha given:
Query Smiles	System Under Test	pest or weed control at 250 g/ha
CC(C)c1cccc([C@H]2CN(C)C(=O)[C@@H]2C(=O)Nc2cccc(F)c2F)c1	ducksalad (Heteranthera limosa)	80%
Cc1c(F)ccc([C@H]2CNC(=O)[C@@H]2C(=O)Nc2ccc(F)cc2F)c1F	ducksalad (Heteranthera limosa)	50%
Cc1ccc([C@H]2CN(C)C(=O)[C@@H]2C(=O)Nc2cccnc2F)cc1	ducksalad (Heteranthera limosa)	100%
O=C1NC[C@H](c2cnc(C(F)(F)F)nc2)[C@H]1C(=O)Nc1cccc(F)c1F	ducksalad (Heteranthera limosa)	90%
Cc1ccc([C@H]2CN(C)C(=O)[C@@H]2C(=O)Nc2ccccc2F)cc1Cl	ducksalad (Heteranthera limosa)	100%
Cc1c(F)cccc1NC(=O)[C@H]1C(=O)N(C)C[C@@H]1c1ccc(C(F)(F)F)cc1	ducksalad (Heteranthera limosa)	100%
CN1C[C@H](c2ccc(Br)cc2)[C@@H](C(=O)Nc2ccc(F)c(F)c2F)C1=O	ducksalad (Heteranthera limosa)	100%

Shifting focus to the molecule that follows.
Reported pest or weed control at 250 g/ha of CN1C[C@H](c2ccc(OC(F)F)cc2)[C@@H](C(=O)Nc2ccccc2F)C1=O : 100%
